Data credit: patent US20070123508A1

# testSystem: human PAR2 (Homo sapiens, UniProt P55085)
# Construct: receptor in pSI-derived mammalian expression vector
# Sequence (P55085 26-397): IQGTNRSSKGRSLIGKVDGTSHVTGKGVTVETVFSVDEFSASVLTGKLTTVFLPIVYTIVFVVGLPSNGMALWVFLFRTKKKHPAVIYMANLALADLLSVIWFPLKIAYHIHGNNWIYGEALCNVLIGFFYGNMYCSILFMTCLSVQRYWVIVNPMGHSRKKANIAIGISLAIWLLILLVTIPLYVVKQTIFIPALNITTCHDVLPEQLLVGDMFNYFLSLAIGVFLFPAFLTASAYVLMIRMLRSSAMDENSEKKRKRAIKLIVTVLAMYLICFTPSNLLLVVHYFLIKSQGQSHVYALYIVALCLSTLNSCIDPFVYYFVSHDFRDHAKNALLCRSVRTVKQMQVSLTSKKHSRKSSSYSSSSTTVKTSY
# testDescription: Receptor Selection and Amplification Technology (R-SAT) functional receptor assay
# conditions: NIH3T3 cells transfected with PAR2, negative log of EC50 (molar)
Decision: EC50 beneath 0.6 µM gives YES; EC50 meeting or exceeding 0.6 µM gives NO.

[[record]]
molecule = "CC(=NNC(=O)C1C(=O)NCC1c1ccccc1)c1cccs1 (mixture of isomers) [Compound 5]"
answerlabel = "NO"

[[record]]
molecule = "CC(=NNC(=O)C1C(=O)NCC1c1ccccc1)c1cccc(Br)c1 (mixture of isomers) [Compound 3]"
answerlabel = "YES"

[[record]]
molecule = "CC(=NNC(=O)C1C(=O)NCC1c1ccccc1)c1ccc(Br)s1 (mixture of isomers) [Compound 4]"
answerlabel = "NO"

[[record]]
molecule = "CC(=NNC(=O)C1C(=O)NCC1c1ccccc1)c1cc(Br)cs1 (mixture of isomers) [Compound 6]"
answerlabel = "YES"

[[record]]
molecule = "CC(=NNC(=O)C1C(=O)NCC1c1ccccc1)c1cncc(Br)c1 (mixture of isomers) [Compound 7]"
answerlabel = "NO"

